Conditions: buffer; pH 7.4; 200.0 µM
observed-property: log10 of solubility kinetic (log10 of the value in µg/mL)
Record value = log10 of solubility kinetic given in µg/mL.

Answered examples (8):
- compound: "CCCCOc1ccc(Cc2c(O)nc(SC)[nH]c2=O)cc1"
  observed-property: "log10 of solubility kinetic"
  measured: 1.30
- compound: "Cc1cccc(C)c1NC(=O)c1cnccn1"
  observed-property: "log10 of solubility kinetic"
  measured: 1.39
- compound: "CC(C)c1ccc(C(O)c2nc3ccccc3n2C)cc1 (centres undefined)"
  observed-property: "log10 of solubility kinetic"
  measured: 1.01
- compound: "OCCC1CN(Cc2cccn2-c2ncccn2)CCN1C1CCCC1 (centres undefined)"
  observed-property: "log10 of solubility kinetic"
  measured: 1.71
- compound: "C=Cn1cc[n+](CC(=O)c2ccc(Br)s2)c1.[Br-]"
  observed-property: "log10 of solubility kinetic"
  measured: 1.72
- compound: "O=C(NC(Cc1ccccc1)C(=O)NC1CC1)OCc1ccccc1 (centres undefined)"
  observed-property: "log10 of solubility kinetic"
  measured: 1.06
- compound: "O=C(Cc1ccc(F)cc1)N1CCN=C1SCc1cccc([N+](=O)[O-])c1"
  observed-property: "log10 of solubility kinetic"
  measured: 0.97
- compound: "CSc1nc2ccc(Br)cc2[nH]1"
  observed-property: "log10 of solubility kinetic"
  measured: 1.55

Consider the following items and state reported log10 of solubility kinetic for each.
1. O=Cc1sc([O-])nc1-[n+]1ccc2ccccc2c1
2. Cc1cccc(CN2CCN(C(=O)c3cccc4ccccc34)CC2)c1
3. COc1ccc(C(=O)COC(=O)CNC(=O)c2ccc(OC)cc2)cc1
4. Cc1ccccc1C(=O)Nc1cccc(NC(=O)c2ccc(F)cc2)c1
5. CCC(C)Oc1ccc(C(=O)Nc2ccc(CN3CCOCC3)cc2)cc1 (centres undefined)
6. O=C(N1CCCCC1)C1(c2ccccc2)CCCCC1
7. Cc1ccc(C(=O)C2CCN(CC(=O)Nc3ccccc3C)CC2)cc1
8. Oc1cccc(Nc2nc(N3CCOCC3)nc(N3CCOCC3)n2)c1

OUTPUT:
1: 0.71; 2: 1.59; 3: 1.24; 4: 0.26; 5: 1.73; 6: 0.56; 7: 0.23; 8: 1.66

Consider the following items and state reported log10 of solubility kinetic for each.
1. CC(C)(C)N1C(=O)c2ccc(C(=O)Nc3ccc(O)cc3)cc2C1=O
2. COC(=O)c1cc(OC(=O)c2ccc(=O)[nH]c2)cc(C(=O)OC)c1
3. CC1CCC(NCCNC(=O)c2ccco2)CC1 (centres undefined)
4. O=S(=O)(Cc1ccccc1)NCCc1cccc(Cl)c1
5. Cc1nc(S(=O)(=O)Nc2ccc3c(c2)OCCO3)cn1C
6. CCc1ccc(NC(=O)CCc2ccc(CC)o2)cc1

OUTPUT:
1: 1.24; 2: 1.10; 3: 1.43; 4: 1.61; 5: 1.12; 6: 0.60

Consider the following items and state reported log10 of solubility kinetic for each.
1. O=C(c1ccc([N+](=O)[O-])cc1)N1CCc2ccccc21
2. O=C(COC(=O)c1ccccc1Br)Nc1cccnc1Cl
3. Cc1ccc(-c2nc3ncccc3o2)cc1NC(=O)c1cccnc1
4. O=C(c1ccc(-c2ccc([N+](=O)[O-])cc2)o1)N1CCCCCCC1
5. CN1CCCN(Cc2nc(-c3ccc(Cl)cc3)no2)CC1
6. O=C(CCN1C(=O)COc2ccccc21)N1CCN(c2ccccc2)CC1

OUTPUT:
1. 0.00
2. 1.26
3. 0.88
4. 0.96
5. 1.61
6. 1.67
